Experiment: MM1S cell viability effects, profiling panel, calcein-AM fluorescence, 48 h, basal (AID 1165);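 also: viability of MM1S multiple myeloma cells under basal unstimulated conditions; test concentration not given here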
Conditions: higher = more signal
quantity.kind: z-score

compound | z-score
COc1ccc([Si](C)(C)[C@@H]2[C@@H](CCO)O[C@]3(C(=O)N(Cc4ccccc4)c4ccc(N5C(=O)c6ccccc6Oc6ccccc65)cc43)[C@H]2C)cc1 | -1.77
C=C(COC)C(=O)CC[C@@H](OC(=O)c1cccnc1)c1cccc(OCCO)c1 | -3.31
COC(=O)c1ccc([C@H](NC(=O)c2ccccc2)[C@]2(C)C[C@H]2C2CCCCC2)cc1 | -0.831
O=c1cccc(-c2ccccc2C(F)(F)F)o1 | 0.634
O=C1OCCC=C[C@H]2OC34C=CCN(c5ccc(Cl)cc5)C(=O)[C@H]3N(CCO)C(=O)[C@@H]4C12 (some centres not stated) | 0.739

Data request: Quote z-score reported for [N-]=[N+]=NCc1ccccc1[C@H]1OC(c2ccc(OCCCO)cc2)=N[C@@]1(Cc1ccccc1)C(=O)N1CCOCC1 please.
Data returned: -1.45

Data request: State its z-score: COCCOC(=O)N1C(=O)[C@@]2(c3cc(C#CC4(O)CCCCCC4)ccc31)[C@H](C(=O)NC[C@H](O)c1ccccc1)[C@H]1C(=O)O[C@H](c3ccccc3)[C@H](c3ccccc3)N1[C@@H]2c1ccc(O)cc1
Data returned: -1.75
